Origin of measurements: paper PMC7703752

assayed.target: T1, FAT domain of human FAK (892–1052) (human, UniProt Q05397 892-1052)
T1 chain: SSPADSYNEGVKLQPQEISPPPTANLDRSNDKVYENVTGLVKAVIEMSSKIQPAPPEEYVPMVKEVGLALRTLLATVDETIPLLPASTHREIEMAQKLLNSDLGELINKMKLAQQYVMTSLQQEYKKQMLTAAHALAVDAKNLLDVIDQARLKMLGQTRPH
measurement.notes: FP
Where no end group is shown, it is not given here.
Kd for assorted binders

A selection of reference data follows.
SASSATRELDELMASLSD (also: N-terminal FITC-Ahx only in labelled form) [Paxillin LD4 peptide] = 7.1 µM
DPTRDLKQLLQELRSVIN (also: N-terminal FITC-Ahx only in labelled form) [CCDC158 (Coiled-coil domain-containing protein 158) LD motif peptide] = 41.6 µM

Query binder follows.
Asked: Request the reported Kd associated with SQEEIDKLLMDLESFSQ (also: N-terminal FITC-Ahx only in labelled form) [PPP2R3A LD motif peptide]
Given back: 41 µM
